Molecular target: adenosine 3 receptor (ADORA3) (Homo sapiens, UniProt P0DMS8)
Construct: recombinant human ADORA3 (Abcam)
Sequence (P0DMS8 whole entry): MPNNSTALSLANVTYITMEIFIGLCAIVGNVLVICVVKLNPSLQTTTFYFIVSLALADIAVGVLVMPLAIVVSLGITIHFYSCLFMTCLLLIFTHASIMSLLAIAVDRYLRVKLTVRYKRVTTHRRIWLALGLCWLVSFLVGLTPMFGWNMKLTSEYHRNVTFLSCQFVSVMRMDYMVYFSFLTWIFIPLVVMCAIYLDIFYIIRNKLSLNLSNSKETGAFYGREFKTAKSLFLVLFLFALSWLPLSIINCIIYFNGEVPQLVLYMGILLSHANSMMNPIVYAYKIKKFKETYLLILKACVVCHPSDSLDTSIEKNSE
Assay: ELISA-based binding inhibition with recombinant human ADORA3 on anti-ADORA3 antibody-coated wells; Ki calculated from IC50 ([…])
Metric: pKi
pKi (log units): -log10 of the concentration in mol/L.

(Q) Determine reported pKi for CC#CCn1c(N2CCC[C@@H](N)C2)nc2c1c(=O)n(Cc1nc(C)c3ccccc3n1)c(=O)n2C [LIN, linagliptin] ; test system: adenosine 3 receptor (ADORA3) (Homo sapiens, UniProt P0DMS8).
(A) 7.42
